Cited source for all entries: ChEMBL document CHEMBL1671761

assay_name: Inhibition of HCV 6a NS3/4A protease
Design: species or system Hepatitis C virus subtype 6a
assay_conditions: read-out: Ki(app)
Task for the reader: assign each of the following compounds its reported pKi.
Note on pKi: it is the negative log10 of concentration, concentration in mol/L.

pKi reading for `CCC[C@H](NC(=O)[C@@H]1[C@H]2CCC[C@H]2CN1C(=O)[C@@H](NC(=O)[C@@H](NC(=O)c1cnccn1)C1CCCCC1)C(C)(C)C)C(=O)C(=O)NC1CC1` : 8.35

pKi reading for CC(C)(C)NC(=O)N[C@H](C(=O)N1C[C@H]2[C@@H]([C@H]1C(=O)NC(CC1CCC1)C(=O)C(N)=O)C2(C)C)C(C)(C)C (some centres not stated) [BOCEPREVIR] : 8.64
